Hey, just so you know, these numbers are from ChEMBL document CHEMBL2434966.

TEST: Aqueous solubility of the compound at pH 6.9 by UV spectroscopic analysis
Type: physicochemical
EXPERIMENTAL CONTEXT: aqueous solution
Consider the following compounds and their measured log10 solubility readings.
Please be aware that the numbers have been log10-transformed from solubility in µg/mL.

For orientation, consider the following solved cases.
INSERT INTO results (molecular_string, value) VALUES
  ('Cc1ccc(/C=C/C(=O)c2ccc(NC(=O)CN3CCN(c4cc5c(cc4F)c(=O)c(C(=O)O)cn5C4CC4)CC3)cc2)c(C)c1', 0.33),
  ('O=C(CN1CCN(c2cc3c(cc2F)c(=O)c(C(=O)O)cn3C2CC2)CC1)Nc1ccc(C(=O)/C=C/c2cccc([N+](=O)[O-])c2)cc1', 1.49),
  ('COc1cc(/C=C/C(=O)c2ccc(NC(=O)CN3CCN(c4cc5c(cc4F)c(=O)c(C(=O)O)cn5C4CC4)CC3)cc2)cc(OC)c1OC', 0.33),
  ('COc1ccc(/C=C/C(=O)c2ccc(NC(=O)CN3CCN(c4cc5c(cc4F)c(=O)c(C(=O)O)cn5C4CC4)CC3)cc2)cc1OC', -0.12);

Requested field: log10 solubility. Item: O=C(CN1CCN(c2cc3c(cc2F)c(=O)c(C(=O)O)cn3C2CC2)CC1)Nc1ccc(C(=O)/C=C/c2cccc(Cl)c2)cc1 1.54

Requested field: log10 solubility. Item: O=C(CN1CCN(c2cc3c(cc2F)c(=O)c(C(=O)O)cn3C2CC2)CC1)Nc1ccc(C(=O)/C=C/c2ccccc2)cc1 0.44

Requested field: log10 solubility. Item: COc1ccc(/C=C/C(=O)c2ccc(NC(=O)CN3CCN(c4cc5c(cc4F)c(=O)c(C(=O)O)cn5C4CC4)CC3)cc2)cc1 0.47
